test: in vivo
Set-up: species or system mice
condition summary: male, NODSCID 1L2RγKO, mouse, iv, total radioactivity, Intestine uptake
# if value of tissue uptake at 4 h reaches 1 %ID/g, tag 1 (yes); if it stays below, tag 0 (no)

Use the examples below as a reference point.
[[record]]
molecule = "COc1ccc(CCCC(=O)NCC(=O)N[C@@H](CCCCNC(=O)CN2CCN(CC(=O)O)CCN(CC(=O)O)CCN(CC(=O)O)CC2)C(=O)NC[C@H]2CC[C@H](C(=O)N[C@@H](Cc3c4ccccc4cc4ccccc34)C(=O)NCCCC[C@H](NC(=O)N[C@@H](CSCC(=O)O)C(=O)O)C(=O)O)CC2)cc1 [177Lu-HTK04048, metal not drawn]"
group = "1 (yes)"

[[record]]
molecule = "COc1ccc(CCCC(=O)NCC(=O)N[C@@H](CCCCNC(=O)CN2CCN(CC(=O)O)CCN(CC(=O)O)CCN(CC(=O)O)CC2)C(=O)NC[C@H]2CC[C@H](C(=O)N[C@@H](Cc3c4ccccc4cc4ccccc34)C(=O)NCCCC[C@H](NC(=O)N[C@@H](COCC(=O)O)C(=O)O)C(=O)O)CC2)cc1 [177Lu-HTK04028, metal not drawn]"
group = "1 (yes)"

[[record]]
molecule = "COc1ccc(CCCC(=O)NCC(=O)N[C@@H](CCCCNC(=O)CN2CCN(CC(=O)O)CCN(CC(=O)O)CCN(CC(=O)O)CC2)C(=O)NC[C@H]2CC[C@H](C(=O)N[C@@H](Cc3c4ccccc4cc4ccccc34)C(=O)NCCCC[C@H](NC(=O)N[C@@H](CCCC(=O)O)C(=O)O)C(=O)O)CC2)cc1 [177Lu-HTK03170, metal not drawn]"
group = "0 (no)"

[[record]]
molecule = "O=C(O)CCC[C@H](NC(=O)N[C@@H](CCCCNC(=O)[C@H](Cc1c2ccccc2cc2ccccc12)NC(=O)[C@H]1CC[C@H](CNC(=O)[C@H](CCCCNC(=O)CN2CCN(CC(=O)O)CCN(CC(=O)O)CCN(CC(=O)O)CC2)NC(=O)CNC(=O)CCCc2ccc(Cl)cc2)CC1)C(=O)O)C(=O)O [177Lu-HTK03153, metal not drawn]"
group = "1 (yes)"


Kindly review the next molecule as well.
**Q:** Please indicate if the recorded tissue uptake at 4 h for O=C(O)CCC[C@H](NC(=O)N[C@@H](CCCCNC(=O)[C@H](Cc1c2ccccc2cc2ccccc12)NC(=O)[C@H]1CC[C@H](CNC(=O)CN2CCN(CC(=O)O)CCN(CC(=O)O)CCN(CC(=O)O)CC2)CC1)C(=O)O)C(=O)O [177Lu-HTK03149, metal not drawn] meets or exceeds 1 %ID/g.
**A:** 0 (no)

====

Each entry below carries its reported tissue uptake at 1 h.
test: in vivo
condition summary: male, NODSCID 1L2RγKO, mouse, iv, total radioactivity, Pancreas uptake

// worked examples, tissue uptake at 1 h included
[[record]]
compound = "O=C(O)CSC[C@H](NC(=O)N[C@@H](CCCCNC(=O)[C@H](Cc1c2ccccc2cc2ccccc12)NC(=O)[C@H]1CC[C@H](CNC(=O)CN2CCN(CC(=O)O)CCN(CC(=O)O)CCN(CC(=O)O)CC2)CC1)C(=O)O)C(=O)O [68Ga-HTK03177, metal not drawn]"
test_value = "0.14 %ID/g"

[[record]]
compound = "O=C(O)C[C@H](NC(=O)N[C@@H](CCCCNC(=O)[C@H](Cc1c2ccccc2cc2ccccc12)NC(=O)[C@H]1CC[C@H](CNC(=O)CN2CCN(CC(=O)O)CCN(CC(=O)O)CCN(CC(=O)O)CC2)CC1)C(=O)O)C(=O)O [68Ga-HTK03161, metal not drawn]"
test_value = "0.18 %ID/g"


Would you kindly look at the next entry?
**Q:** Give the measured tissue uptake at 1 h of O=C(O)CN1CCN(CC(=O)O)CCN(CC(=O)NC[C@H]2CC[C@H](C(=O)N[C@@H](Cc3c4ccccc4cc4ccccc34)C(=O)NCCCC[C@H](NC(=O)N[C@@H](C[C@@H](F)C(=O)O)C(=O)O)C(=O)O)CC2)CCN(CC(=O)O)CC1 [68Ga-HTK04033, metal not drawn] .
**A:** 0.15 %ID/g

====

test: in vivo
Parameters: species or system mice
condition summary: male, NODSCID 1L2RγKO, mouse, iv, total radioactivity, Bone uptake
Documented tissue uptake at 24 h across a set of compounds
Numeric only. Scale: %ID/g

[[record]]
compound = "O=C(O)CCC[C@H](NC(=O)N[C@@H](CCCCNC(=O)[C@H](Cc1c2ccccc2cc2ccccc12)NC(=O)[C@H]1CC[C@H](CNC(=O)CN2CCN(CC(=O)O)CCN(CC(=O)O)CCN(CC(=O)O)CC2)CC1)C(=O)O)C(=O)O [177Lu-HTK03149, metal not drawn]"
unit_abbreviation = "%ID/g"
test_value = 0.03


**Q:** Which value of tissue uptake at 24 h has been reported for COc1ccc(CCCC(=O)NCC(=O)N[C@@H](CCCCNC(=O)CN2CCN(CC(=O)O)CCN(CC(=O)O)CCN(CC(=O)O)CC2)C(=O)NC[C@H]2CC[C@H](C(=O)N[C@@H](Cc3c4ccccc4cc4ccccc34)C(=O)NCCCC[C@H](NC(=O)N[C@@H](COCC(=O)O)C(=O)O)C(=O)O)CC2)cc1 [177Lu-HTK04028, metal not drawn] in the records?
**A:** 0.11

**Q:** tissue uptake at 24 h lookup needed for COc1ccc(CCCC(=O)NCC(=O)N[C@@H](CCCCNC(=O)CN2CCN(CC(=O)O)CCN(CC(=O)O)CCN(CC(=O)O)CC2)C(=O)NC[C@H]2CC[C@H](C(=O)N[C@@H](Cc3c4ccccc4cc4ccccc34)C(=O)NCCCC[C@H](NC(=O)N[C@@H](CSCC(=O)O)C(=O)O)C(=O)O)CC2)cc1 [177Lu-HTK04048, metal not drawn] , thanks.
**A:** 0.11

**Q:** Requested read-out: tissue uptake at 24 h. Entry: O=C(O)CCC[C@H](NC(=O)N[C@@H](CCCCNC(=O)[C@H](Cc1c2ccccc2cc2ccccc12)NC(=O)[C@H]1CC[C@H](CNC(=O)[C@H](CCCCNC(=O)CN2CCN(CC(=O)O)CCN(CC(=O)O)CCN(CC(=O)O)CC2)NC(=O)CNC(=O)CCCc2ccc(Cl)cc2)CC1)C(=O)O)C(=O)O [177Lu-HTK03153, metal not drawn]
**A:** 0.4

**Q:** Form field: reported tissue uptake at 24 h of COc1ccc(CCCC(=O)NCC(=O)N[C@@H](CCCCNC(=O)CN2CCN(CC(=O)O)CCN(CC(=O)O)CCN(CC(=O)O)CC2)C(=O)NC[C@H]2CC[C@H](C(=O)N[C@@H](Cc3c4ccccc4cc4ccccc34)C(=O)NCCCC[C@H](NC(=O)N[C@@H](CCCC(=O)O)C(=O)O)C(=O)O)CC2)cc1 [177Lu-HTK03170, metal not drawn]
**A:** 0.06

====

The entries below are paired with their reported tissue uptake at 4 h.
test: in vivo
Parameters: species or system mice
condition summary: male, NODSCID 1L2RγKO, mouse, iv, total radioactivity, Kidneys uptake
Only the number, expressed in %ID/g, is required.

Before answering, review these 3 worked examples.
[[record]]
compound = "O=C(O)CCC[C@H](NC(=O)N[C@@H](CCCCNC(=O)[C@H](Cc1c2ccccc2cc2ccccc12)NC(=O)[C@H]1CC[C@H](CNC(=O)[C@H](CCCCNC(=O)CN2CCN(CC(=O)O)CCN(CC(=O)O)CCN(CC(=O)O)CC2)NC(=O)CNC(=O)CCCc2ccc(Cl)cc2)CC1)C(=O)O)C(=O)O [177Lu-HTK03153, metal not drawn]"
measurement_type = "tissue uptake at 4 h"
test_value = 9.1

[[record]]
compound = "O=C(O)CCC[C@H](NC(=O)N[C@@H](CCCCNC(=O)[C@H](Cc1c2ccccc2cc2ccccc12)NC(=O)[C@H]1CC[C@H](CNC(=O)CN2CCN(CC(=O)O)CCN(CC(=O)O)CCN(CC(=O)O)CC2)CC1)C(=O)O)C(=O)O [177Lu-HTK03149, metal not drawn]"
measurement_type = "tissue uptake at 4 h"
test_value = 1.67

[[record]]
compound = "COc1ccc(CCCC(=O)NCC(=O)N[C@@H](CCCCNC(=O)CN2CCN(CC(=O)O)CCN(CC(=O)O)CCN(CC(=O)O)CC2)C(=O)NC[C@H]2CC[C@H](C(=O)N[C@@H](Cc3c4ccccc4cc4ccccc34)C(=O)NCCCC[C@H](NC(=O)N[C@@H](COCC(=O)O)C(=O)O)C(=O)O)CC2)cc1 [177Lu-HTK04028, metal not drawn]"
measurement_type = "tissue uptake at 4 h"
test_value = 9.21


**Q:** Quick one: tissue uptake at 4 h for COc1ccc(CCCC(=O)NCC(=O)N[C@@H](CCCCNC(=O)CN2CCN(CC(=O)O)CCN(CC(=O)O)CCN(CC(=O)O)CC2)C(=O)NC[C@H]2CC[C@H](C(=O)N[C@@H](Cc3c4ccccc4cc4ccccc34)C(=O)NCCCC[C@H](NC(=O)N[C@@H](CSCC(=O)O)C(=O)O)C(=O)O)CC2)cc1 [177Lu-HTK04048, metal not drawn] ?
**A:** 12.4

**Q:** Name the reported tissue uptake at 4 h value associated with the compound COc1ccc(CCCC(=O)NCC(=O)N[C@@H](CCCCNC(=O)CN2CCN(CC(=O)O)CCN(CC(=O)O)CCN(CC(=O)O)CC2)C(=O)NC[C@H]2CC[C@H](C(=O)N[C@@H](Cc3c4ccccc4cc4ccccc34)C(=O)NCCCC[C@H](NC(=O)N[C@@H](CCCC(=O)O)C(=O)O)C(=O)O)CC2)cc1 [177Lu-HTK03170, metal not drawn]
**A:** 9.23

Where do the numbers come from? From patent US11504441B2.
